Provenance of the data: ChEMBL document CHEMBL3988442

Catalogue of Percent Effect readings, one per entry.
target desc: Tyrosyl-tRNA synthetase, putative (Trypanosoma cruzi (strain CL Brener)) (UniProt Q4DSP6)
Sequence (Q4DSP6 as listed by the source): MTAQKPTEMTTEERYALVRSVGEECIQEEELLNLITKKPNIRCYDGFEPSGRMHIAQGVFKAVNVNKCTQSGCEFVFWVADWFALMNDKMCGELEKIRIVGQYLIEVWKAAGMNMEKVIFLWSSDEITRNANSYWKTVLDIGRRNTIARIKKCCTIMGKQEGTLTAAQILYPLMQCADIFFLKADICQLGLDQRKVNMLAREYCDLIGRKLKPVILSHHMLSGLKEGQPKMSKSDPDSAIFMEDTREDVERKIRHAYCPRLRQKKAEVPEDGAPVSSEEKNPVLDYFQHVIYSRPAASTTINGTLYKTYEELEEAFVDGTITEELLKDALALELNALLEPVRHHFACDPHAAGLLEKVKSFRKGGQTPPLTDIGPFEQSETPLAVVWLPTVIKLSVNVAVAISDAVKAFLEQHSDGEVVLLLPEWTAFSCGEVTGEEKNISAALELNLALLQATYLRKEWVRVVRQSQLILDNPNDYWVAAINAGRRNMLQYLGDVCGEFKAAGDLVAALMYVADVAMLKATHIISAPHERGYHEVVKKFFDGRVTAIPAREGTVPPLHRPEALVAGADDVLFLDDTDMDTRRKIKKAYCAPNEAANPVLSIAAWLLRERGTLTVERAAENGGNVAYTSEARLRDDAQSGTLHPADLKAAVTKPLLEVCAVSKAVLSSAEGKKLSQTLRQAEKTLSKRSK
assay procedure: Trypanosoma cruzi tyrosyl tRNA synthetase (TcYRS) _High Tyrosine SOP; further: in the data most compounds retested in dose-response had high values
Type: functional
Set-up: scale not given: direction of the effect not stated beside the values
run conditions: 30 µM

molecule: Cc1nn(C)c(C)c1CC(=O)N1CCC(N(C)c2cccnn2)CC1
Percent Effect (%): 3.43
//
molecule: COc1ccc(-c2nccnc2C2CCN(C(C)=O)CC2)cc1
Percent Effect (%): 1.07
//
molecule: Cn1cc2c(n1)C(CNC(=O)Cc1ccsc1)OCC2 (configuration not stated)
Percent Effect (%): 2.12
//
molecule: Cn1cccc1CN1CCC2(CCCN(C(=O)Cc3cccnc3)C2)C1 (configuration not stated)
Percent Effect (%): -2.12
//
molecule: O=C(NCc1cccs1)C1CN(C(=O)c2cccs2)CC12CCOCC2 (configuration not stated)
Percent Effect (%): 2.08
//
molecule: Cc1cc(CN2CCOCS2(=O)=O)ccc1F
Percent Effect (%): 4.76
//
molecule: CCOc1cccc(C(C)NCc2ccc(OC)c(OC)c2OC)c1 (configuration not stated)
Percent Effect (%): 7.1
//
molecule: COc1cccc(CN2CCC(c3cc(O)nc(C)n3)C2)c1 (configuration not stated)
Percent Effect (%): 6.45
//
molecule: CCc1cccc(NS(=O)(=O)c2cc3c(c(C(=O)O)c2)OCCO3)c1
Percent Effect (%): -7.29
//
molecule: Cc1cccc(CN(Cc2ccc(C)o2)C2CC(C)(C)NC(C)(C)C2)n1
Percent Effect (%): 3.23
//
molecule: Cc1ncsc1C(=O)NCCSCCCO
Percent Effect (%): 4.95
//
molecule: O=C(NCCN1CCOCC1)NCc1ncc(-c2ccccc2)o1
Percent Effect (%): 7.1

* * *

target desc: Protein translocase subunit SecA (Escherichia coli (strain K12))
assay procedure: Assay to Identify E. coli SecA ATPase Inhibitors
Type: functional
Set-up: scale not given: direction of the effect not stated beside the values
run conditions: 30 µM
Measured potencies and affinities stand elsewhere.

compound: Cc1ccc(N2CC[C@H](OCC3CC3)[C@@H]2Cc2cnn(C)c2)nn1
Percent Effect (%): -4.88
--
compound: COc1cc(C(=O)N(CCC#N)Cc2ccccn2)cc(OC)c1C
Percent Effect (%): -4.24
--
compound: CCc1nc(CN(C)C2CCN(Cc3cnc(C)cn3)C2)no1 (configuration not stated)
Percent Effect (%): 0.722
--
compound: CN(CCN1CCOCC1)C(=O)CCCc1ccccc1
Percent Effect (%): -3.72
--
compound: CNC(=O)[C@@]12CCCN(c3ncccn3)[C@@H]1CN(C(=O)NC(C)C)C2
Percent Effect (%): -0.175
--
compound: CC(CNC(=O)Nc1ccc(N(C)C)nc1)Cn1cccn1 (configuration not stated)
Percent Effect (%): -4.28
--
compound: NC(=O)c1nc(COc2ccc3c(c2)OCO3)no1
Percent Effect (%): 2.5
--
compound: CN(C)Cc1nnc(C2CCN(C(=O)CCc3cccs3)CC2)n1C
Percent Effect (%): -3.21
--
compound: FC1(F)CCN(Cc2cccnc2)CC12CCN(c1ccccn1)C2 (configuration not stated)
Percent Effect (%): -2.18
--
compound: COc1c(CNC2CCCc3ccccc32)c(C(C)C)nn1C (configuration not stated)
Percent Effect (%): -5.37
--
compound: COc1ccc(Cl)cc1C(=O)N1CCCC(n2nc(C)nc2C)C1 (configuration not stated)
Percent Effect (%): -3.26
--
compound: O=C(O)CC1CN(Cc2ccccc2)CCO1 (configuration not stated)
Percent Effect (%): -6.06
--
compound: CC(C)Cc1cc(C(=O)N2CCCC(n3cncn3)C2)[nH]n1 (configuration not stated)
Percent Effect (%): -1.38
--
compound: Cc1noc(C)c1CN1CC[C@H]2OCC[C@@H](C(=O)N3CCCO3)[C@@H]2C1
Percent Effect (%): -8.03
--
compound: Cn1cccc1C(=O)N1CCN(CC2CC2)c2ncccc2C1
Percent Effect (%): -6.82
--
compound: Cc1ccc(CNC(=O)CN2CCN(CC(O)C3CC3)CC2)cc1 (configuration not stated)
Percent Effect (%): -0.763
--
compound: O=C(NCCCNC(=O)c1cccc(O)c1)NCc1ccccc1F
Percent Effect (%): -2.42
--
compound: CN(CCCOc1ccc(F)cc1)Cc1nc2c(cnn2C)c(=O)[nH]1
Percent Effect (%): -0.991
--
compound: CN(C)C(=O)COC1COC2(CCN(S(C)(=O)=O)CC2)C1 (configuration not stated)
Percent Effect (%): 0.201
--
compound: CN(C(=O)Cc1ccc(NC(=O)NC2CCC2)cc1)c1ccccc1
Percent Effect (%): -9.26
--
compound: O=C(CCNC(=O)C1CCCC1)NCc1ccccc1Cn1cncn1
Percent Effect (%): -3.71
--
compound: O=C(NCCN1CCCCCC1=O)c1n[nH]c(=O)c2ccccc12
Percent Effect (%): -2.33
--
compound: Cc1nc(C)n(CC2CCCCN2Cc2nnc(C3CC3)o2)n1 (configuration not stated)
Percent Effect (%): 0.312
--
compound: CN(C)c1ncc(CN2CCC(c3nnsc3S(C)(=O)=O)CC2)cn1
Percent Effect (%): -2.31
--
compound: O=C1N(CCCc2ccccc2)CCCC1(O)CNCc1ccccc1 (configuration not stated)
Percent Effect (%): -3.24
--
compound: COC(=O)CCc1c(C)nn(-c2nc(C)cc(=O)[nH]2)c1C
Percent Effect (%): 2.99
--
compound: COCCC(=O)N1CCC2(COCc3cnc(N4CCOCC4)nc32)C1 (configuration not stated)
Percent Effect (%): -4.87
--
compound: Cc1noc(C(C)N2CCN(CCCN3CCCC3=O)CC2)n1 (configuration not stated)
Percent Effect (%): -1.22
--
compound: N#Cc1ccccc1CN1C[C@@H]2CC[C@H](C1)N(CC1CC1)C2=O
Percent Effect (%): -0.53
--
compound: N#Cc1ccc(C(=O)N2CCC3(CC2)C(=O)Nc2ccccc23)cn1
Percent Effect (%): -4.93
--
compound: COc1cc(CNC(=O)c2c(C)noc2C(C)C)ccn1
Percent Effect (%): -2.87
--
compound: CCn1cc(CN2CCCC(CO)(CCc3ccccc3)C2)c(C)n1 (configuration not stated)
Percent Effect (%): -3.86
--
compound: O=C(NCC1CC1)C1CN(C(=O)c2cccnc2)CC12CCOCC2 (configuration not stated)
Percent Effect (%): -0.919
--
compound: Cc1cc(C(=O)N2CCN(C(=O)Cc3ccccn3)CC2)c(C)s1
Percent Effect (%): -3.63
--
compound: O=C(c1cnco1)N1C[C@@H]2CC[C@H](Oc3cccc(F)c3)[C@@H]2C1
Percent Effect (%): -9.68
--
compound: O=C(NCC(O)c1ccccc1Cl)c1cccc(-n2cnnn2)c1 (configuration not stated)
Percent Effect (%): -1.49
--
compound: CC1CCc2nc(O)c(C(=O)NCCN(C)C)cc2C1 (configuration not stated)
Percent Effect (%): -6.34
--
compound: Cn1cc(CN2CCC3(C2)CN(Cc2ccsc2)C3)cn1
Percent Effect (%): -5.1
--
compound: O=C(Cn1cc(C(=O)O)ccc1=O)Nc1ccc(F)cc1Cl
Percent Effect (%): -1.48
--
compound: CC(C(=O)N1CCN(c2cnccn2)CC1)n1cncn1 (configuration not stated)
Percent Effect (%): -0.0716
--
compound: CC(c1ccc(F)c(F)c1)N1CCN(Cc2nccn2C)CC1 (configuration not stated)
Percent Effect (%): 0.457
--
compound: Cc1ccc(C)c(NC(=O)Nc2c[nH]c(=O)[nH]c2=O)c1
Percent Effect (%): 3.77
--
compound: Cn1cnc2c(N3CCCC3)nc(C3CCNCC3)cc21
Percent Effect (%): -0.224
--
compound: CNc1nc2c(c(C(=O)N3CCCC3)n1)CN(Cc1nccn1C)CC2
Percent Effect (%): -4.21
--
compound: CCOc1cccc(CNc2ccccc2C(=O)OC)c1O
Percent Effect (%): 2.18
--
compound: CNS(=O)(=O)c1cccc(CNC(=O)c2c(C)oc(C)c2C)c1
Percent Effect (%): -3.91
--
compound: N#Cc1ncn(CC(=O)Nc2cc(Cl)ccc2F)n1
Percent Effect (%): -7.02

* * *

target desc: Proteasome subunit beta (Trypanosoma cruzi)
assay procedure: Trypanosoma cruzi proteasome chymotrypsin-like activity (TcProtChymo) assay. Further: in the data most compounds retested in dose-response had high values.
Format: functional
Design: scale not given: direction of the effect not stated beside the values
run conditions: 9.37 µM

compound: O=C(c1cccc(F)c1)N1CCN2C[C@H](OCc3cccnc3)C[C@H]2C1
Percent Effect: 10.7%
//
compound: CN(C)C(=O)Cc1nc(CN2CCn3c(nnc3C3CC3)C2)cs1
Percent Effect: 10.8%
//
compound: Cc1nc(CN2C(=O)CC[C@H]3[C@@H]2CCN3C(=O)c2ccsc2)cs1
Percent Effect: 28%
//
compound: O=C(N1CCOCC1)[C@@]12CCO[C@@H]1CCN(CC1CCCCC1)C2
Percent Effect: 7.58%
//
compound: Cn1nc(CNC(=O)C2CC2)cc1C1CC1
Percent Effect: 4%
//
compound: COCCN1CCC(N(Cc2noc(C3CC3)n2)C(C)=O)C1 (configuration not stated)
Percent Effect: 18.3%
//
compound: O=C(NCC(F)(F)F)NC1CCCc2c1cnn2CCO (configuration not stated)
Percent Effect: 12.4%
//
compound: CCOc1ccc(Cl)cc1C1CCCN1 (configuration not stated)
Percent Effect: 13.5%
//
compound: Cc1noc(C(C)C)c1C(=O)NCC(c1cccc(F)c1)N(C)C (configuration not stated)
Percent Effect: -7.45%
//
compound: Clc1ccccc1CN1CCc2nc(C3CCCCN3)ncc2C1 (configuration not stated)
Percent Effect: 5.55%
//
compound: CN(Cc1nccs1)c1nc(-c2ccccn2)nc2c1CCNCC2
Percent Effect: 8.95%
//
compound: CC(=O)N1CCC(C(=O)c2cc(C)cnc2N)CC1
Percent Effect: 7.67%
//
compound: Cn1ccnc1CN1CCN(c2ccc(C#N)cc2F)CC1
Percent Effect: 11.1%
//
compound: Fc1ccc(OCCCN2CCOC(Cn3cncn3)C2)cc1 (configuration not stated)
Percent Effect: 3.43%
//
compound: Cc1[nH]nc2ncc(C(=O)N3CCN(CC(C)C)CC3)cc12
Percent Effect: 7.36%
//
compound: CNC(=O)N1C[C@H]2CC[C@@]3(N=C(c4ccccc4)NC3=O)[C@H]2C1
Percent Effect: 9.48%
//
compound: Cc1cccc(CN2CCC3(CCCN(C(=O)NC4CC4)C3)C2=O)n1 (configuration not stated)
Percent Effect: 6.79%
//
compound: COCc1cccc(NC(C)C(=O)N(C)Cc2ccccc2)c1 (configuration not stated)
Percent Effect: -1.46%
//
compound: Cc1nn(C)c(C)c1C(=O)N1CCOCC1CC(=O)c1ccco1 (configuration not stated)
Percent Effect: -0.0959%
//
compound: Cn1ncc2c1CCCC2NCc1cc(Br)cs1 (configuration not stated)
Percent Effect: 21.4%
//
compound: CC(C)C1CN(C(=O)c2nccnc2N)CCS1 (configuration not stated)
Percent Effect: 6.32%
//
compound: CC(=O)Nc1nc(C(=O)Nc2ccc(N3CCCCC3)nc2)cs1
Percent Effect: 10.6%
//
compound: CCn1ccnc1CN1CCOC(CNc2cccnn2)C1 (configuration not stated)
Percent Effect: 16.4%
//
compound: CC(C)NC(=O)[C@@H]1CCO[C@@H]2CCN(c3ncccn3)C[C@H]21
Percent Effect: 4.1%
//
compound: CCn1cc(NC(=O)NCC(O)COc2cccc(F)c2)cn1 (configuration not stated)
Percent Effect: 6.68%
//
compound: O=C(Cn1cc(C(=O)O)ccc1=O)NCc1ccc(F)c(Cl)c1
Percent Effect: 11.7%
//
compound: CC(C)[C@H](NC(=O)NC1CCS(=O)(=O)C1)C(=O)Nc1cccnc1 (some centres not stated)
Percent Effect: 13.1%
//
compound: CC(NC(N)=O)C(=O)N1CCCN(Cc2nccn2C(C)C)CC1 (configuration not stated)
Percent Effect: 2.74%
//
compound: CC(c1nc(C2CC2)no1)N1CCN(c2ccc(C#N)cn2)CC1 (configuration not stated)
Percent Effect: 13.7%
//
compound: CC(=O)N1CCCN(C(=O)NCc2cc[nH]n2)CC1
Percent Effect: 14.6%
//
compound: CC(NC(=O)NCCCn1cccn1)c1ccc2c(c1)NC(=O)CO2 (configuration not stated)
Percent Effect: 10.2%
//
compound: O=C(NCCc1c[nH]cn1)c1ccc2c(c1)C(=O)N(C1CC1)C2=O
Percent Effect: 11.7%
//
compound: Cc1cnn(C2CCCN(C(=O)CCc3nccs3)C2)c1 (configuration not stated)
Percent Effect: 17.3%
//
compound: Cc1ccc(CN2CCOC3(COCCN(CCN(C)C)C3)C2)o1 (configuration not stated)
Percent Effect: 14%
//
compound: Cc1ncsc1CN1C[C@H](C(=O)N2CCCO2)[C@@H]2CCO[C@@H]2C1
Percent Effect: 16.5%
//
compound: CCC1=N[C@@]2(CC[C@@H]3CN(S(=O)(=O)N(C)C)C[C@@H]32)C(=O)N1CC(C)C
Percent Effect: -0.696%
//
compound: O=C(NCc1nnc2ccccn12)N1CCc2sccc2C1
Percent Effect: 7.89%
//
compound: CC(=O)N1CC(=O)N(c2ccccc2)CC12CCN(Cc1cccs1)C2 (configuration not stated)
Percent Effect: 7.69%
//
compound: FC1(F)CCN(Cc2ccncc2)CC12CCN(Cc1ccccn1)C2 (configuration not stated)
Percent Effect: 5.35%
//
compound: c1ccc(N2CCCC3(COCCN(c4nccs4)C3)C2)nc1 (configuration not stated)
Percent Effect: 16%
//
compound: c1cnc(N2CCOC3(CCN(CC4CCCCC4)CC3)C2)nc1
Percent Effect: 14.7%
//
compound: COc1cc(C)ccc1OCCC(=O)N1CCCC1Cn1cccn1 (configuration not stated)
Percent Effect: 0.254%
//
compound: CCOc1ncccc1NC(=O)N1CCc2ccccc2C1
Percent Effect: 0%
//
compound: COc1ccc(CN(C)C(=O)CCc2c(C)nc(C)[nH]c2=O)cc1OC
Percent Effect: 20.2%
//
compound: Cc1cc(F)c(S(=O)(=O)NCCCN2CCC(O)CC2)cc1F
Percent Effect: 15.8%
//
compound: COc1cccc2c1OCC(CNC(=O)CCCN1CCOCC1)C2 (configuration not stated)
Percent Effect: 13.1%
//
compound: CCCN(CC1COc2ccccc2O1)C(=O)CCn1cncn1 (configuration not stated)
Percent Effect: 8.52%
